Test: soluble on expression in E. coli; label from the status in PepcDB or PDB records
READOUT KIND: soluble on expression in E. coli

MGSDKIHHHHHHMSRTLVLFDIDGTLLKVESMNRRVLADALIEVYGTEGSTGSHDFSGKMDGAIIYEVLSNVGLERAEIADKFDKAKETYIALFRERARREDITLLEGVRELLDALSSRSDVLLGLLTGNFEASGRHKLKLPGIDHYFPFGAFADDALDRNELPHIALERARRMTGANYSPSQIVIIGDTEHDIRCARELDARSIAVATGNFTMEELARHKPGTLFKNFAETDEVLASILTPKHS = not soluble
SFSSLPLTGENPGAWALVRDNSAKGITAGSGSQQTTYDPTRTEAALTASTTFALRRYDLAGRALYDLDFSKLNPQTPTRDQTGQITFNPFGGFGLSGAAPQQWNEVKNKVPVEVAQDPSNPYRFAVLLVPRSVVYYEQLQRGLGLPQQRTESGQNTSTTGAMFGLKVKNAEADTAKSNEKLQGAEATGSSTTSGSGQSTQRGGSSGDTKVKALKIEVKKKSDSEDNGQLQLEKNDLANAPIKRSEESGQSVQLKADDFGTALSSSGSGGNSNPGSPTPWRPW = soluble
MSLIMSEPPQLTTPDDKDVENRKHSSTYSISNLLLEKKESSPSGSSSEDDSASSNDDDQRSPSATSSFIFPPASSSSSSESATSPTQIMAQLMANGGAVDPGLQAYFFLLQSQLNSQSMMNRVTQENVSRALTSFNLLNNLPGALPSLSPMGRLQHSMQLSPNSLNMQKKQSRPTFTGHQIYQLERKFEQTKYLAGADRAQLAQELNMSESQVKVWFQNRRTKWRKKEAADNALVKRGASGDKSPCSLSPFLSAGI = not soluble
MGSDKIHHHHHHMIPSSMKAMVLKGHGGIDQLMYQDVPVPQPREGEVLVQVTATAKNNTDRKAREGLYPTKKGEMTSFQMGGKPTLTFPRIQGADIVGRIVAVGAGVSEQRIGERGLLDFNIYADNRTDINLTPDYYGHGADGGYAEYVALPSDQFHHIPNPDLADAELASMGMCSYQTAYHMLTSANIQAGERVLVTGASGGVGTALIQLCRIIGAIPYALSQKDKADSLLKLGAEAVLDRTDMDSFVDRVKAETGGKPLDAVMDLVGGDMTDRFIDAMIFDMNARSTYPRLSIAGASGGNISEILWTRIYLYQVQIFGVSHGTREEAEQLMRWIRSGDLKPVLHGAFRLSELHRAEEYFVNRGSNYLGKIVIVPDAQWQEHGQPYEVEAD = not soluble
MAHHHHHHMNQVIRSRTDWKERVVLRLAWITASRWSEIAALTPNNLKLKTDGTLILYWPVAPKTARTDPHRASRFVRIRGQDAFDIIKLCRTLQHIEKLTNLTTARVERALAPWNATAHSIRRGALRHAAQIVEAYNLNPHVISQLAKHVDPFDLPQNTVRYLGNCTTMLTQVLSLVALM = not soluble
AAPFDVTAPQEPVLALVGSDAELTCGFSPNASSEYMELLWFRQTRSTAVLLYRDGQEQEGQQMTEYRGRATLATAGLLDGRATLLIRDVRVSDQGEYRCLFKDNDDFEEAAVYLKVAAVGSDPQISMTVQENGEMELECTSSGWYPEPQVQWRTGNREMLPSTSESKKHNEEGLFTVAVSMMIRDSSIKNMSCCIQNILLGQGKEVEISLPAPFVPRLTPW = not soluble
GMASAIIETAIPQSEMTASATSEEGQDPASSAIDGNINTMWHTKWNGSDALPQSLSVNLGKARKVSSIAITPRTSGNNGFITKYEIHAINNGVETLVAEGTWEENNLVKTVTFDSPIDAEEIKITAIQGVGGFASIAELNVYE = soluble

----------
Assay: soluble on expression in E. coli; label from the status in PepcDB or PDB records
READOUT KIND: soluble on expression in E. coli

MAHHHHHHMGCSGSKNASNPKDGAASKGGKDGKTTADRKVAWERIRCAIPRDKDAESKSRRIELFKRFDTNGTGKLGFREVLDGCYSVLKLDEFTTHLPDIVQRAFDKAKDLGNKVKGVGEEDLVEFLEFRLMLCYIYDIFELTVMFDTMDKDGSLLIELQEFKEALPKLKEWGVDITDATTVFNEIDTNGSGVVTFDEFSCWAVTKKLQVCGDPDGEGNGANEGDGANAGDGVPAAEGSA = soluble
MKKIHPSAVIEEGAQLGDDVVIEAYAYVSKDAKIGNNVVIKQGARILSDTTIGDHSRVFSYAIVGDIPQDISYKEEQKSGVVIGKNATIREFATINSGTAKGDGFTRIGDNAFIMAYCHIAHDCLLGNNIILANNATLAGHVELGDFTVVGGLTPIHQFVKVGEGCMIAGASALSQDIVPFCLAEGNRASIRSLNLVGIRRRFDKDEVDRLSRAFKTLFRQGDLKENAKNLLENQESENVKKMCHFILETKRGIPVYRGKNNA = soluble

----------
Experiment: soluble on expression in E. coli; label from the status in PepcDB or PDB records
READOUT KIND: soluble on expression in E. coli

MIESKTYAVLGLGNGGHAFAAYLALKGQSVLAWDIDAQRIKEIQDRGAIIAEGPGLAGTAHPDLLTSDIGLAVKDADVILIVVPAIHHASIAANIASYISEGQLIILNPGATGGALEFRKILRENGAPEVTIGETSSMLFTCRSERPGQVTVNAIKGAMDFACLPAAKAGWALEQIGSVLPQYVAVENVLHTSLTNVNAVMHPLPTLLNAARCESGTPFQYYLEGITPSVGSLAEKVDAERIAIAKAFDLNVPSVCEWYKESYGQSPATIYEAVQGNPAYRGIAGPINLNTRYFFEDVSTGLVPLSELGRAVNVPTPLIDAVLDLISSLIDTDFRKEGRTLEKLGLSGLTAAGIRSAVE = soluble
MSLTIKLIAIDIDGTLLNEKNELAQATIDAVQAAKAQGIKVVLCTGRPLTGVQPYLDAMDIDGDDQYAITFNGSVAQTISGKVLTNHSLTYEDYIDLEAWARKVRAHFQIETPDYIYTANKDISAYTIAESYLVRMLIQYREVSETPRDLTISKAMFVDYPQVIEQVKANMPQDFKDRFSVVQSAPYFIEVMNRRASKGGTLSELVDQLGLTADDVMTLGDQGNDLTMIKYAGLGVAMGNAIDEVKEAAQAVTLTNAENGVAAAIRKYALNEGHHHHHH = soluble
MCSDVVAGDLNDLRIAALNLGKMSELYTNGAFVLGIAQGADTETYGRPHEWWSYVEQQLATALRFTYDRLNDGQEALLAAIDAYAYVDGDNAKGLTDVGKEYKEYISNPNNVGDEKYYDPPPLHTMVDAPDLGDKPEGWEEKYDG = not soluble
MRKLMTATAALCACAVTVSAGAAWADADVQPAGSVPIPDGPAQTWIVADLDSGQVLAGRDQNVAHPPASTIKVLLALVALDELDLNSTVVADVADTQAECNCVGVKPGRSYTARQLLDGLLLVSGNDAANTLAHMLGGQDVTVAKMNAKAATLGATSTHATTPSGLDGPGGSGASTAHDLVVIFRAAMANPVFAQITAEPSAMFPSDNGEQLIVNQDELLQRYPGAIGGKTGYTNAARKTFVGAAARGGRRLVIAMMYGLVKEGGPTYWDQAATLFDWGFALNPQASVGSL = soluble
MDPARECEGKGACELKSNKRFADKIMPHLLNLYGSSAKANDFDMYAPNASFEDPLTHAQGVKQIKSAFYSLPKVFGESKIVEYHIQESETSPGKKEILIDNKQHYKIMGRNIDMISLIKLYVEDGKIVRHEDWWDKKPLRNRDTVSFPLVGRVMEMGRRGLMLATHAMMGFGKDPDSQ = soluble
VNFDDIASSENLLHLTANRPKMPGRRLPG = soluble
MDKNINISVKVWRQKGPKEKGHFETYQLQNISQSASFLEMMDILNEQLIKEHKAPVVFDHDCREGICGMCSLYINGHPHGPDDSITTCQLHMRRFDDGDTITIEPWRSAGFPVIRDLMVDRSAYDKIIQSGGFVSVNTGGIPDANAIPISKKNADEAMDAAACIGCGACAAACKNGSAMLFVSAKVSQLALLPQGRIEAARRAKAMVAKMDELGFGNCTNTRACEMECPKNVSISHIARLNREYIVAKNRD = not soluble
MSTVQVPKLNTKDLLTLEELTQEEIISLIEFAIYLKKNKQEPLLQGKILGLIFDKHSTRTRVSFEAGMVQLGGHGMFLNGKEMQMGRGETVSDTAKVLSHYIDGIMIRTFSHADVEELAKESSIPVINGLTDDHHPCQALADLMTIYEETNTFKGIKLAYVGDGNNVCHSLLLASAKVGMHMTVATPVGYKPNEEIVKKALAIAKETGAEIEILHNPELAVNEADFIYTDVWMSMGQEGEEEKYTLFQPYQINKELVKHAKQTYHFLHCLPAHREEEVTGEIIDGPQSIVFEQAGNRLHAQKALLVSLFKNVEELS = not soluble
MGSDKIHHHHHHMMTYRDAWFELALLTNGRSFPRHTHDEFVISANLSGMETVWLDGETFVATNDMVTTYNPNQLQGSDNAFDRWQCASLYVHPQAFEHYFHQTFLFSQGWNPSAQLASELKQLVTSDLDDSARQERIILLLAGLMEGQHRMLPQSQVKEAERITRIKEGLLNDLSEVPTLDQLAQQESLSVAHLVRSFNQAVGLPPLAWLMQRRMCKARELLRQGTAISQVAGDVGFADQAHFTKAFNRYNAMTPGQFRRINF = not soluble
MGSDKIHHHHHHMDIQNMPREQLGVCAEGNLHSVYLMFNANDNVESQLRPCIANVAQYIYELTDQYSDSAFNGFVAIGANYWDSLYPESRPEMLKPFPAMQEGNREAPAIEYDLFVHLRCDRYDILHLVANEISQMFEDLVELVEEERGFRFMDSRDLTGFVDGTENPKGRHRQEVALVGSEDPEFKGGSYIHVQKYAHNLSKWHRLPLKKQEDIIGRTKQDNIEYESEDKPLTSHIKRVNLKDENGKSIEILRQSMPYGSLKEQGLMFISTCRTPDHFEKMLHSMVFGDGAGNHDHLMHFTSALTGSSFFAPSLDFLMQFDN = not soluble
MGSDKIHHHHHHMNTSISASWGRYINAIPPRSGEAALAPLSSFVDGQCIYSFGERADQVYQVEFGAVRVYRLAANGRRQILAFHFGGNWFGLQSRDRHSSNAEAIGVTGVRCISLQEEPLFRPALFSAALDNVSAAQEHQLVIGRQSAIERVAAFLLEMSERSGYSRRFELSMSRVDVADYLALTVETVSRSLTKLKHRGFIELHGARGIELVGYRALQNLCL = not soluble
MGSDKIHHHHHHMKFLPLIAMCLFLTGCVGDRSDLELFVTTTKAQHVAHIPPLKEPPRFEHFAYQAELMRSPFVPPSRELTEEVVDTSKDCLQPDLKRRKGRLETYPLDNLKMRGTLSEADTTWALVETNDGSVYRMGTGEYLGLFNGRISKVTSQNVEVVELIPDGSGCWSERTSNLELSGE = not soluble
